- TARGET DESC: T1, DR4 (TRAIL-R1) on cancer cells (human, UniProt O00220 24-468)
- T1 sequence: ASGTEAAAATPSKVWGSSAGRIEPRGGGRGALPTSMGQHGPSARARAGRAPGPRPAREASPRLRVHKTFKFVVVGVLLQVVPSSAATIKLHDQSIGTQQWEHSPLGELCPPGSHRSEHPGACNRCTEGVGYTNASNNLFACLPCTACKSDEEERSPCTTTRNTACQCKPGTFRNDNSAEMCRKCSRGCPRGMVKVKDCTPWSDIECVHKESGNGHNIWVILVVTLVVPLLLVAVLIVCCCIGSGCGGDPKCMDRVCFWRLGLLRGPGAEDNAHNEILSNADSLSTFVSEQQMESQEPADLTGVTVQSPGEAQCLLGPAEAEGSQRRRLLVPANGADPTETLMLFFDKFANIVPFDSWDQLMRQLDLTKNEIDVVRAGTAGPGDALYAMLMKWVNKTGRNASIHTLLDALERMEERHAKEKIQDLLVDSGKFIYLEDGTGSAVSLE
- EXPERIMENT: cell-based or functional assay
QUANTITY MEASURED: EC50 Colo205 (cell killing) (nM)

65p114P1A3 (designed binder) EPPTQKPKKIVNAKKDVVNTKMFEELKSRLDTLAQEVALLKEQQALQTVCLKGTKVHMKCFLAFTQTKTFHEASEDCISRGGTLSTPQTGSENDALYEYLRQSVGNEAEIWLGLNGWLEGSGWVDMTGARIAYKNWADPKWSQPDGGVQWRWENCAVLSGAANGKWFDKRCRDQLPYICQFGIV	0.11
65p114P1B2 (designed binder) EPPTQKPKKIVNAKKDVVNTKMFEELKSRLDTLAQEVALLKEQQALQTVCLKGTKVHMKCFLAFTQTKTFHEASEDCISRGGTLSTPQTGSENDALYEYLRQSVGNEAEIWLGLNGWLEGSGWVDMTGARIAYKNWFHDRFNQPDGGVQWRWENCAVLSGAANGKWFDKRCRDQLPYICQFGIV	0.18
142p72P1C9 (designed binder) EPPTQKPKKIVNAKKDVVNTKMFEELKSRLDTLAQEVALLKEQQALQTVCLKGTKVHMKCFLAFTQTKTFHEASEDCISRGGTLSTPQTGSENDALYEYLRQSVGNEAEIWLGLNGWLEGSGWVDMTGARIAYKNWGDPRWSQPDGGVQWRWENCAVLSGAANGKWFDKRCRDQLPYICQFGIV	0.18
142p62P1A2 (designed binder) EPPTQKPKKIVNAKKDVVNTKMFEELKSRLDTLAQEVALLKEQQALQTVCLKGTKVHMKCFLAFTQTKTFHEASEDCISRGGTLSTPQTGSENDALYEYLRQSVGNEAEIWLGLNGWLEGSGWVDMTGARIAYKNWGDQRLAQPDGGVQWRWENCAVLSGAANGKWFDKRCRDQLPYICQFGIV	0.39
142p62P1G2 (designed binder) EPPTQKPKKIVNAKKDVVNTKMFEELKSRLDTLAQEVALLKEQQALQTVCLKGTKVHMKCFLAFTQTKTFHEASEDCISRGGTLSTPQTGSENDALYEYLRQSVGNEAEIWLGLNGWLEGSGWVDMTGARIAYKNWADERFLQPDGGVQWRWENCAVLSGAANGKWFDKRCRDQLPYICQFGIV	0.32
